# Target Or System: His6-JNK2 (Homo sapiens, UniProt P45984)
# Construct: His6 (N)
# Sequence (P45984 whole entry): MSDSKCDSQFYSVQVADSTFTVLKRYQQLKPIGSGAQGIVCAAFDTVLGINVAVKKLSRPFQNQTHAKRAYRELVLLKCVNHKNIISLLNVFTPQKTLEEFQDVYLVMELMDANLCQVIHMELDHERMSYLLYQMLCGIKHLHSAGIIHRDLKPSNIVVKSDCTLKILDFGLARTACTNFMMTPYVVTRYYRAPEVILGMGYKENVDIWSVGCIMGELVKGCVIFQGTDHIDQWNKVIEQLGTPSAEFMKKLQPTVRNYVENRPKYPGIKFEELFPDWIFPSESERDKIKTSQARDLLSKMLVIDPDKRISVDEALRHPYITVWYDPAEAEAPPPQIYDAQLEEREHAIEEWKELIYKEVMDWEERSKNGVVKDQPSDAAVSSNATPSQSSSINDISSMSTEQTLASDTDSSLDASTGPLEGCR
# Protocol: JNK2 Assay (c-Jun phosphorylation, 32P-ATP filter plate)
# Format: biochemical
# Condition: c-Jun phosphorylation reduced to 50% of control; GST-c-Jun(1-79), 11 μM ATP; read-out: IC50 value in the JNK2 Assay
pIC50: −log10 of the molar value.
Answer each item with its documented pIC50.

Request: Kindly state the measured pIC50 obtained for O=C(NCCCN1CCCCC1)c1ccc(Nc2nccc(-c3ccc(Cl)cc3)n2)cc1 with His6-JNK2 (Homo sapiens, UniProt P45984).
Response: ≥ 5.00

Request: # iterate: CCN1CCN(C(=O)c2ccc(Nc3nccc(-c4ccc(Cl)cc4)n3)cc2)CC1
Response: ≥ 5.00

Request: Proceed to CCOc1ccc(-c2ccnc(Nc3ccc(C(N)=O)cc3)n2)cn1
Response: ≥ 6.00

Request: Queued: NC(=O)c1ccc(Nc2nccc(-c3ccc(N4CCOCC4)cc3)n2)cc1
Response: ≥ 5.00
